Sourced from the kinase profiling compilation of Christmann-Franck et al. (2016)

- measured.target: NEK5 (human) (UniProt Q6P3R8)
- Sequence (Q6P3R8 whole entry, looked up): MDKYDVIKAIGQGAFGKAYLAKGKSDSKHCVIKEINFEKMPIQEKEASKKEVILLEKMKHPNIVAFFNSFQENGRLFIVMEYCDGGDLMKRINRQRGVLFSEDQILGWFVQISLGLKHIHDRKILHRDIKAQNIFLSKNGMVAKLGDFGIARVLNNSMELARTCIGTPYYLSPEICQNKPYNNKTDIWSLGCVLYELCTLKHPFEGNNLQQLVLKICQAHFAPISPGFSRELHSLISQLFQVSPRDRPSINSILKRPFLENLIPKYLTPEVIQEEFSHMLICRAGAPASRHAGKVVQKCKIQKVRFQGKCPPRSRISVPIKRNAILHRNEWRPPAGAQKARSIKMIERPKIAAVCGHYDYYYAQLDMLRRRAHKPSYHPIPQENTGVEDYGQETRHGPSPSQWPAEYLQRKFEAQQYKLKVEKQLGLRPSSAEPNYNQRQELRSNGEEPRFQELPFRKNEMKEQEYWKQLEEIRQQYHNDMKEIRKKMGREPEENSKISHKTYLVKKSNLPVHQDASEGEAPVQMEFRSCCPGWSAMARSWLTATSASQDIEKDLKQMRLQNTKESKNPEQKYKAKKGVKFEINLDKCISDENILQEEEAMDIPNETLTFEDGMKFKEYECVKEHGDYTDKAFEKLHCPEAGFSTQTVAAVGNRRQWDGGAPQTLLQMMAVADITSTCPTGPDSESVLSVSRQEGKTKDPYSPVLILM
- procedure.text: KINOMEscan competition binding
- recorded.conditions: compound 10.0 µM
experimental.endpoint: kinase still bound, per cent of control (%)
The response must be a number in % with no trailing unit.

INSERT INTO assay_data (smiles_notation, measured_target, experimental_value) VALUES
  ('O=C(NC1CC1)c1cccc(-c2ccc3c(NC(=O)C4CC4)n[nH]c3c2)c1', 'NEK5 (human) (UniProt Q6P3R8)', 60);

query: Bench note: what kinase still bound, per cent of control did CCOc1cc2ncc(C#N)c(Nc3ccc(OCc4ccccn4)c(Cl)c3)c2cc1NC(=O)/C=C/CN(C)C show?
result: 100

query: Would you kindly share the measured kinase still bound, per cent of control for CC[C@@H]1C(=O)N(C)c2cnc(Nc3ccc(C(=O)NC4CCN(C)CC4)cc3OC)nc2N1C1CCCC1 ?
result: 100
